Biological target: Solute carrier family 22 member 3 (Homo sapiens)
Sequence (O75751 whole entry): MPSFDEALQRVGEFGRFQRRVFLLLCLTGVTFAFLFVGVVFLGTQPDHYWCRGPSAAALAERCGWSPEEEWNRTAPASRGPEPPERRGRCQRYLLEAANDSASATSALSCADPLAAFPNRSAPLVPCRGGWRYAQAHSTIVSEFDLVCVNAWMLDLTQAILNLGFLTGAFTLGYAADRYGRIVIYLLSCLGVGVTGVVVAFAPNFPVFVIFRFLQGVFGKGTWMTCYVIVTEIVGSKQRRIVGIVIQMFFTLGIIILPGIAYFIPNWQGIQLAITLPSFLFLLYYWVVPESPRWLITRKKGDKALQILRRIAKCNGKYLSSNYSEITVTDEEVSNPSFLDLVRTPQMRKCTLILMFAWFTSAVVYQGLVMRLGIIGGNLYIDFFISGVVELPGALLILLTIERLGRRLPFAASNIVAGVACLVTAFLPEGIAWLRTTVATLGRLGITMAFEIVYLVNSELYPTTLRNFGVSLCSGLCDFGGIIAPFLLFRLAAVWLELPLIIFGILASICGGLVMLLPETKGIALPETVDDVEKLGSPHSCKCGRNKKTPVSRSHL
Assay: Inhibition of OCT3 (unknown origin) expressed in HEK293 cells assessed as inhibition of ASP+ uptake incubated for 5 mins by fluorescence based analysis
Format: cell-based
Conditions: read-out: IC50
Kindly state IC50 for each of the entries shown.
Please respond with the number in µM and leave the unit unwritten.

Given item `O=C(Cn1nc(C(=O)Nc2cccnc2)c2ccccc21)Nc1ccc(Cl)cc1` , the value recorded as its IC50 is 111

Data point: `COc1cccc(NC(=O)c2nn(CC(=O)Nc3ccccc3OC)c3ccccc23)c1` ; IC50 = 76.4

----------
For each record, write down the corresponding IC50.
Target: UniProt Q9Y6L6
Sequence (Q9Y6L6 whole entry): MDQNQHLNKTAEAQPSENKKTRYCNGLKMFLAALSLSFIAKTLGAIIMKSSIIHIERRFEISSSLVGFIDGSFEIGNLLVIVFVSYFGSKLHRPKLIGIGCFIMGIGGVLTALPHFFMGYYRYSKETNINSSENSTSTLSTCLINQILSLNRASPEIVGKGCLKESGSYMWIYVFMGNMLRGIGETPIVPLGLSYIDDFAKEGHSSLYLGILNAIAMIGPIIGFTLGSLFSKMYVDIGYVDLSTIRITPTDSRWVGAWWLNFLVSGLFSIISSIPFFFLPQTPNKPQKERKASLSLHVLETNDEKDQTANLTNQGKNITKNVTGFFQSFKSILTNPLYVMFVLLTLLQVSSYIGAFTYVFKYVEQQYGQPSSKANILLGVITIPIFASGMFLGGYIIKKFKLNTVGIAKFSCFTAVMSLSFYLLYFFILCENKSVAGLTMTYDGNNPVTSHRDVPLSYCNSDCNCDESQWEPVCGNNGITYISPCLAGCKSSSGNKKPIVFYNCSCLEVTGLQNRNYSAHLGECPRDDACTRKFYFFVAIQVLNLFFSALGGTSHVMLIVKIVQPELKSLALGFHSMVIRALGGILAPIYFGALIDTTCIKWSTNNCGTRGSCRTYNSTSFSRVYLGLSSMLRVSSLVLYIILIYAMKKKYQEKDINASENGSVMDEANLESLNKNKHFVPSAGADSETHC
Assay: Inhibition of OATP1B1 (unknown origin) transfected in human A-431 cells assessed as inhibition of DHPDS uptake preincubated for 5 mins followed by DHPDS addition and measured after 10 mins by fluorescence based analysis
Write your answer as a measured quantity: the number, then the unit.

Item: `O=C(Cn1nc(C(=O)Nc2cccnc2)c2ccccc21)Nc1ccc(Cl)cc1` | IC50: 17.9 µM

// IC50 value for `COc1cccc(NC(=O)c2nn(CC(=O)Nc3ccccc3OC)c3ccccc23)c1` : 5.66 µM

IC50 for `O=C(Cn1nc(C(=O)Nc2ccccn2)c2ccccc21)Nc1cc(Cl)ccc1Cl` is 16.8 µM

`COc1cccc(NC(=O)Cn2nc(C(=O)Nc3cccc(OC)c3)c3ccccc32)c1` yielded IC50 of 4.96 µM

----------
Target: Solute carrier organic anion transporter family member 1A2 (Homo sapiens)
Sequence (P46721 whole entry): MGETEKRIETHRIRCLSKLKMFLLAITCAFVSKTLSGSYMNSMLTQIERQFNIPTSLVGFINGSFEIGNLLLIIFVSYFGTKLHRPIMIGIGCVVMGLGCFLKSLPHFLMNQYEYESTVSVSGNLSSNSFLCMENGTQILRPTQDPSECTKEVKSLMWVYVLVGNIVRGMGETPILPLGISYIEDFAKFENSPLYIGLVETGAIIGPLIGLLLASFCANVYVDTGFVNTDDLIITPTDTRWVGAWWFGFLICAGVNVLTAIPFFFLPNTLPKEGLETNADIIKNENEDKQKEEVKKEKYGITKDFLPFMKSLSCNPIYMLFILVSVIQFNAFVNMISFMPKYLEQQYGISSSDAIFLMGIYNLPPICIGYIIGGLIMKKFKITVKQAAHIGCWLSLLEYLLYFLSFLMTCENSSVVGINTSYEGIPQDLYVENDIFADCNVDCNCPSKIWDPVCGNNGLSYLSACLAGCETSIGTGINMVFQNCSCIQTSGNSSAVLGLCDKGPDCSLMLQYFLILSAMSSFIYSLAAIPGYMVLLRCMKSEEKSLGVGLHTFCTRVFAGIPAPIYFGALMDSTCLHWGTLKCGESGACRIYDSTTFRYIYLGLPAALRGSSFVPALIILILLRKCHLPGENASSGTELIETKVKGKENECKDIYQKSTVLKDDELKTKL
Assay: Inhibition of OATP1A2 (unknown origin) transfected in human A-431 cells assessed as inhibition of SR101 uptake preincubated for 5 mins followed by SR101 addition and measured after 10 mins by fluorescence based analysis
For each record, write down the corresponding pIC50.
Scale note: pIC50 = -log10(concentration in M).

# pIC50 (molecule: `O=C(Cn1nc(C(=O)Nc2ccccn2)c2ccccc21)Nc1cc(Cl)ccc1Cl` ) is 5.88

Data point: `O=C(Cn1nc(C(=O)Nc2cccnc2)c2ccccc21)Nc1ccc(Cl)cc1` ; pIC50 = 6.37

Documented pIC50 of `COc1cccc(NC(=O)Cn2nc(C(=O)Nc3cccc(OC)c3)c3ccccc32)c1` : 6.38

// pIC50 lookup, molecule = `COc1cccc(NC(=O)c2nn(CC(=O)Nc3ccccc3OC)c3ccccc23)c1` , result: 6.63

----------
Please go through the items and note down their IC50.
Biological target: UniProtKB P08183
Sequence (P08183 whole entry): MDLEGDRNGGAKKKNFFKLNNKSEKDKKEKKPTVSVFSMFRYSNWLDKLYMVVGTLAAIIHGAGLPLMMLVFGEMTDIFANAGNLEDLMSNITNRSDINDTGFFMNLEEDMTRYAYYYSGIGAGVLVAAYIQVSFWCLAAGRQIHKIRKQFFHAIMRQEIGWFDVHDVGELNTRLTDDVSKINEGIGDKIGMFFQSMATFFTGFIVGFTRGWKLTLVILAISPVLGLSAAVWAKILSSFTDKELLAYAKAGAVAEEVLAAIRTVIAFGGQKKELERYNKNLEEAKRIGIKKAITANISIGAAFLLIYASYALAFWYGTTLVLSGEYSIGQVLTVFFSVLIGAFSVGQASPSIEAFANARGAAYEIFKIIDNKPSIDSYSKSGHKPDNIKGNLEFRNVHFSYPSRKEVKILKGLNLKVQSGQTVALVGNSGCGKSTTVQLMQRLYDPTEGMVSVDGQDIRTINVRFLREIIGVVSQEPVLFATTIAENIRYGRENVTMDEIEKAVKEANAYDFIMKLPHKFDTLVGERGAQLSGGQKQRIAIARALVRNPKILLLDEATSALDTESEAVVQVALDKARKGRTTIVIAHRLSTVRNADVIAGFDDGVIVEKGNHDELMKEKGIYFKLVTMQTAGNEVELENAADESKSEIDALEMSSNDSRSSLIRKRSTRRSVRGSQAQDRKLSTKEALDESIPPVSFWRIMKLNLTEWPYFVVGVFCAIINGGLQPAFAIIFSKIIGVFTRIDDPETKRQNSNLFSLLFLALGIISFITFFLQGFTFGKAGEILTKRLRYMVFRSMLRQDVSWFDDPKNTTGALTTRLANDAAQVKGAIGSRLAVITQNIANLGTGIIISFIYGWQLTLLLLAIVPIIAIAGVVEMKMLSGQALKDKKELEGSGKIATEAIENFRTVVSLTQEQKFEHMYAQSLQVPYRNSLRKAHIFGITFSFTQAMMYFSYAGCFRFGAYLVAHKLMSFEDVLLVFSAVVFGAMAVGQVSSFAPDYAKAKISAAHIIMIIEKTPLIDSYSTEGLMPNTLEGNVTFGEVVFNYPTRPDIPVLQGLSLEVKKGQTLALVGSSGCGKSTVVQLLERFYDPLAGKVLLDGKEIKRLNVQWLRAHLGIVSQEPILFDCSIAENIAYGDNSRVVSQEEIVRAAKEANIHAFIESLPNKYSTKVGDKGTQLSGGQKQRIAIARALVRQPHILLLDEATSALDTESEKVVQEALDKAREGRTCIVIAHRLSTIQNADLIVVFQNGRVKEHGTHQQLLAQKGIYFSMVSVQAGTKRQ
Assay: Inhibition of ABCB1 in human A2780 ADR cells assessed as increase in daunorubicin fluorescence intensity using daunorubicin as tracer preincubated for 30 mins followed by daunorubicin addition and measured for 180 mins by flow cytometry
Assay type: cell-based
Number in nM, nothing else.

IC50 value, target or system UniProtKB P08183, for `COc1cccc(NC(=O)Cn2nc(C(=O)Nc3cccc(OC)c3)c3ccccc32)c1` : 1430

The molecule `O=C(Cn1nc(C(=O)Nc2ccccn2)c2ccccc21)Nc1cc(Cl)ccc1Cl` , when measured on UniProtKB P08183, yielded IC50 of 1740

Case `O=C(Cn1nc(C(=O)Nc2cccnc2)c2ccccc21)Nc1ccc(Cl)cc1` , UniProtKB P08183, IC50 recorded as 8000

Short answer on UniProtKB P08183 for `COc1cccc(NC(=O)c2nn(CC(=O)Nc3ccccc3OC)c3ccccc23)c1` , IC50: 2180

----------
Give measured pIC50 for each item. Keep answers brief.
Molecular target: UniProt O15244
Sequence (O15244 whole entry): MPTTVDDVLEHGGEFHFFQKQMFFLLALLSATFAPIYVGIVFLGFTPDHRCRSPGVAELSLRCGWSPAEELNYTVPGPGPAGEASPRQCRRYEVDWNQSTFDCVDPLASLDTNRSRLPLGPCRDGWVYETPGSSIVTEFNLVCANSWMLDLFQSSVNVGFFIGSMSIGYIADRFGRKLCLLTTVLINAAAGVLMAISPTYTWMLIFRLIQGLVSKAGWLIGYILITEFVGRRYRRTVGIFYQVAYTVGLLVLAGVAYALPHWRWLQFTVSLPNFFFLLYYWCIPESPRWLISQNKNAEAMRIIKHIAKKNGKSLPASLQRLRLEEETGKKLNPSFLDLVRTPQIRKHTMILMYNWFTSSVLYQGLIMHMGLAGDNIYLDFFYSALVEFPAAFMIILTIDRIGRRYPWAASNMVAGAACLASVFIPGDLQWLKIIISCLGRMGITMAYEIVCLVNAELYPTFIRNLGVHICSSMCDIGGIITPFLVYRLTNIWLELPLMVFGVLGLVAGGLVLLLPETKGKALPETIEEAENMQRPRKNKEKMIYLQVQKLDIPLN
Assay: Inhibition of OCT2 (unknown origin) expressed in HEK293 cells assessed as inhibition of ASP+ uptake incubated for 5 mins by fluorescence based analysis
Format: cell-based
pIC50 here: minus log base 10 of the concentration, concentration in moles per litre.

Record summary for `O=C(Cn1nc(C(=O)Nc2cccnc2)c2ccccc21)Nc1ccc(Cl)cc1` : reported pIC50 = 4.22

pIC50 recorded for this compound, `O=C(Cn1nc(C(=O)Nc2ccccn2)c2ccccc21)Nc1cc(Cl)ccc1Cl` , is 4.30

Form field pIC50, entry `COc1cccc(NC(=O)c2nn(CC(=O)Nc3ccccc3OC)c3ccccc23)c1` : 4.93

Looking up `COc1cccc(NC(=O)Cn2nc(C(=O)Nc3cccc(OC)c3)c3ccccc32)c1` , I found its pIC50 recorded as 4.68

----------
Record form. Attribute: pIC50. Fill in for each entry.
Molecular target: UniProt:O94956
Sequence (O94956 whole entry): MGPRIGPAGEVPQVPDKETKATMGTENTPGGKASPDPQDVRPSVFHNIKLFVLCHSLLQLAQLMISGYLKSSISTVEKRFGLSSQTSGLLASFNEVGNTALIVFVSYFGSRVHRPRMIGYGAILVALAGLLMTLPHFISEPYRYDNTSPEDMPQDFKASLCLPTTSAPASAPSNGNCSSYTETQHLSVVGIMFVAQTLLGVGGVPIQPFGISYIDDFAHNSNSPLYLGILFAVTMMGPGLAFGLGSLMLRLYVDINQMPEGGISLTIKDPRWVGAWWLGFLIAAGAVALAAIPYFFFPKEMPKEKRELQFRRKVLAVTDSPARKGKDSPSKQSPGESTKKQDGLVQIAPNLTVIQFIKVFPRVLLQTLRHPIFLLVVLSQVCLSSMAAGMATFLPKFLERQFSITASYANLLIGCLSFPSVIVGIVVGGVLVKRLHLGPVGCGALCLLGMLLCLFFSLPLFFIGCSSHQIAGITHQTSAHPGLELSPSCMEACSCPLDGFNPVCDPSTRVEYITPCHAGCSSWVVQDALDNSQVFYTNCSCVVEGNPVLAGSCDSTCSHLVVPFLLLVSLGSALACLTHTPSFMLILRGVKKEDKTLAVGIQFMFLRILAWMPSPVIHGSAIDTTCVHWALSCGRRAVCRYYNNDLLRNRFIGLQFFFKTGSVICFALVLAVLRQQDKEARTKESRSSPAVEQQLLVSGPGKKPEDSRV
Experiment: Inhibition of OATP2B1 (unknown origin) transfected in human A-431 cells assessed as inhibition of pyranine uptake preincubated for 5 mins followed by pyranine addition and measured after 15 mins by fluorescence based analysis
Just the number, please; pIC50 means minus log10 of the concentration in mol/L.

The recorded pIC50 for entry `O=C(Cn1nc(C(=O)Nc2ccccn2)c2ccccc21)Nc1cc(Cl)ccc1Cl` equals 6.78

Lab note: `O=C(Cn1nc(C(=O)Nc2cccnc2)c2ccccc21)Nc1ccc(Cl)cc1` gave pIC50 of 6.81

Data point: `COc1cccc(NC(=O)c2nn(CC(=O)Nc3ccccc3OC)c3ccccc23)c1` ; pIC50 = 6.91

Recorded result, `COc1cccc(NC(=O)Cn2nc(C(=O)Nc3cccc(OC)c3)c3ccccc32)c1` , pIC50: 6.23
